This section presents compounds with their documented melting point values.

Would you please look over these solved cases?
[
  {
    "compound": "CC1=Nc2c(Cl)cccc2CN1C1CC(=O)NC1=O (centres unmarked) [Example 15hh]",
    "observed": "176 to 178 °C"
  },
  {
    "compound": "CC1=Nc2ccc([N+](=O)[O-])cc2CN1C1CC(=O)NC1=O (centres unmarked) [Example 15z]",
    "observed": "170 to 175 °C"
  },
  {
    "compound": "CC1=Nc2cccc(Cl)c2CN1C1CC(=O)NC1=O (centres unmarked) [Example 15i]",
    "observed": "163 to 170 °C"
  },
  {
    "compound": "CC1=Nc2cccc(F)c2CN1C1CC(=O)NC1=O (centres unmarked) [Example 15l]",
    "observed": "185 °C"
  },
  {
    "compound": "CC1=Nc2cccc(OC(C)C)c2CN1C1CC(=O)NC1=O (centres unmarked) [Example 15m]",
    "observed": "116 to 119 °C"
  }
]

Q: // melting point lookup, key: CCCCCOc1cccc2c1CN(C1CC(=O)NC1=O)C(C)=N2 (centres unmarked) [Example 15q]
A: 154 to 156 °C

Q: Dear colleague, I am looking for the recorded melting point of the following compound: CC1=Nc2cccc([N+](=O)[O-])c2CN1C1CC(=O)NC1=O (centres unmarked) [Example 15p]
A: > 260 °C (dec.)

Q: Name the reported melting point value associated with the compound COc1cc2c(cc1OC)N=C(C)N(C1CC(=O)NC1=O)C2 (centres unmarked) [Example 15v]
A: 200 to 202 °C
